# credit: ChEMBL document CHEMBL1649382

- protocol-description: Cytotoxicity against mouse EAC assessed as non-viable cells after 2 hrs by trypan blue exclusion test
- Type: functional, cell-based
- assay-conditions: Ehrlich
attribute-measured: IC50 (µg/mL)
The reply should contain only the number, in µg/mL.

Worked examples, 4 molecules total:
• NS(=O)(=O)c1ccc(N2C3=C(C(=O)CCC3)C(c3ccc(Cl)cc3Cl)c3c2nc(C2CC2)[nH]c3=O)cc1 (centres undefined) = 56
• COc1cccc2c1C(=O)c1c(O)c3c(c(O)c1C2=O)C[C@@](O)(C(=O)CO)C[C@@H]3O[C@H]1C[C@H](N)[C@H](O)[C@H](C)O1 [DOXORUBICIN] = 38
• Cc1ccc(-c2nc3c(c(=O)[nH]2)C(c2ccc(Cl)cc2Cl)C2=C(CCCC2=O)N3c2ccc(S(N)(=O)=O)cc2)cc1 (centres undefined) = 28
• N#CC1=C(NC(=O)c2ccccc2)N(c2ccc(S(N)(=O)=O)cc2)C2=C(C(=O)CCC2)C1c1ccc(Cl)cc1Cl (centres undefined) = 10

Q) Specify measured IC50 for N#CC1=C(NC(=O)C2CC2)N(c2ccc(S(N)(=O)=O)cc2)C2=C(C(=O)CCC2)C1c1ccc(Cl)cc1Cl (centres undefined) .
A) 75

---

- protocol-description: Cytotoxicity against mouse EAC assessed as non-viable cells after 2 hrs by trypan blue exclusion test
- Assay type: functional, cell-based
- assay-conditions: Ehrlich
attribute-measured: IC50

Some solved cases for reference:
* Cc1ccc(C(=O)NC2=C(C#N)C(c3ccc(Cl)cc3Cl)C3=C(CCCC3=O)N2c2ccc(S(N)(=O)=O)cc2)cc1 (configuration not stated) | > 100 mg/L
* CC(=O)CC(=O)NC1=C(C#N)C(c2ccc(Cl)cc2Cl)C2=C(CCCC2=O)N1c1ccc(S(N)(=O)=O)cc1 (configuration not stated) | 64 mg/L
* NS(=O)(=O)c1ccc(N2C3=C(C(=O)CCC3)C(c3ccc(Cl)cc3Cl)c3c2nc(-c2ccc(Br)cc2)[nH]c3=O)cc1 (configuration not stated) | 25 mg/L
* N#CC1=C(N)N(c2ccc(S(N)(=O)=O)cc2)C2=C(C(=O)CCC2)C1c1ccc(Cl)cc1Cl (configuration not stated) | 25 mg/L
* N#CC1=C(NC(=O)c2ccc([N+](=O)[O-])cc2)N(c2ccc(S(N)(=O)=O)cc2)C2=C(C(=O)CCC2)C1c1ccc(Cl)cc1Cl (configuration not stated) | 50 mg/L

Q) Annotate the compound NC(=O)C1=C(N)N(c2ccc(S(N)(=O)=O)cc2)C2=C(C(=O)CCC2)C1c1ccc(Cl)cc1Cl (configuration not stated) with its measured IC50.
A) > 100 mg/L

Q) Note IC50 for the compound shown: NS(=O)(=O)c1ccc(N2C3=C(C(=O)CCC3)C(c3ccc(Cl)cc3Cl)c3c2nc(CCl)[nH]c3=O)cc1 (configuration not stated)
A) > 100 mg/L

---

- protocol-description: Cytotoxicity against mouse EAC assessed as non-viable cells after 2 hrs by trypan blue exclusion test
- Format: functional, cell-based
- assay-conditions: Ehrlich
Entries annotated with measured IC50

Worked set:
- COc1cc(C(=O)NC2=C(C#N)C(c3ccc(Cl)cc3Cl)C3=C(CCCC3=O)N2c2ccc(S(N)(=O)=O)cc2)cc(OC)c1OC (configuration not stated): 60 mg/L
- Cc1nc2c(c(=S)[nH]1)C(c1ccc(Cl)cc1Cl)C1=C(CCCC1=O)N2c1ccc(S(N)(=O)=O)cc1 (configuration not stated): > 100 mg/L
- CC(Cl)CC(=O)NC1=C(C#N)C(c2ccc(Cl)cc2Cl)C2=C(CCCC2=O)N1c1ccc(S(N)(=O)=O)cc1 (configuration not stated): 25 mg/L
- N#CC1=C(/N=C/c2ccc([N+](=O)[O-])cc2[N+](=O)[O-])N(c2ccc(S(N)(=O)=O)cc2)C2=C(C(=O)CCC2)C1c1ccc(Cl)cc1Cl (configuration not stated): > 100 mg/L
- NS(=O)(=O)c1ccc(N2C3=C(C(=O)CCC3)C(c3ccc(Cl)cc3Cl)c3c2nc(-c2ccccc2)[nH]c3=O)cc1 (configuration not stated): > 100 mg/L

Q) Name the recorded IC50 of the molecule listed here: CN(C)c1ccc(/C=C/C=N/C2=C(C#N)C(c3ccc(Cl)cc3Cl)C3=C(CCCC3=O)N2c2ccc(S(N)(=O)=O)cc2)cc1 (configuration not stated)
A) > 100 mg/L

Q) Output IC50 of CN(C)c1ccc(/C=N/C2=C(C#N)C(c3ccc(Cl)cc3Cl)C3=C(CCCC3=O)N2c2ccc(S(N)(=O)=O)cc2)cc1 (configuration not stated)
A) > 100 mg/L
